# Target entity: Fuc(a1-2)[Gal(a1-3)]Gal(b1-3)GlcNAc(b1-2)Man(a1-3)[Fuc(a1-2)[Gal(a1-3)]Gal(b1-3)GlcNAc(b1-2)Man(a1-6)]Man(b1-4)GlcNAc(b1-4)[Fuc(a1-6)]GlcNAc
# Assay procedure: glycan array binding signal (z-score within array); higher = stronger binding
# Conditions: glycan notation: IUPAC condensed, linker removed
Only a selection was taken, and the strongest signals are over-represented in it overall.
List of glycan array binding signal (z-score) values.
Answer with a number only.

PGP3 (Chlamydia trachomatis), P0CE18 (protein) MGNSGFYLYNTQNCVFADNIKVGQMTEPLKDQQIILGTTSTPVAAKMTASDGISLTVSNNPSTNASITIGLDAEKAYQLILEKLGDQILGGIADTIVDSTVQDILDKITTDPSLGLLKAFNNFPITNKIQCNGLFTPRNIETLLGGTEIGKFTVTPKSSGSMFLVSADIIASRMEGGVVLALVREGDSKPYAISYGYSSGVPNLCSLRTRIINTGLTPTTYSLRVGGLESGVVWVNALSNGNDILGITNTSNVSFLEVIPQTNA    0.251
FimA-N3 (Actinomyces oris) (protein) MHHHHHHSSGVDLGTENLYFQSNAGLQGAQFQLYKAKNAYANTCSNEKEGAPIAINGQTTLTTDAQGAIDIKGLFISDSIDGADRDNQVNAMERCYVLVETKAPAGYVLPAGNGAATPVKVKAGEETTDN    -0.364

Lookup result for Mg3lysM (Mycosphaerella graminicola) (protein) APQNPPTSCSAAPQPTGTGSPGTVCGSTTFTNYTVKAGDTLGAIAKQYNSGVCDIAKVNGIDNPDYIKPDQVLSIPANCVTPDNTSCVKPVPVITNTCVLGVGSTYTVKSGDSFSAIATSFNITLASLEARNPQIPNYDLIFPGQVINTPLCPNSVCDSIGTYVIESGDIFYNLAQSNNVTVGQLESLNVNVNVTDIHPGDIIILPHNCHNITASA ; measured glycan array binding signal (z-score): -0.127
